For each of the molecules below, state its IC50.
Target: α-glucosidase (Saccharomyces cerevisiae, UniProt P38158)
Construct: purchased Merck
Sequence (P38158 whole entry): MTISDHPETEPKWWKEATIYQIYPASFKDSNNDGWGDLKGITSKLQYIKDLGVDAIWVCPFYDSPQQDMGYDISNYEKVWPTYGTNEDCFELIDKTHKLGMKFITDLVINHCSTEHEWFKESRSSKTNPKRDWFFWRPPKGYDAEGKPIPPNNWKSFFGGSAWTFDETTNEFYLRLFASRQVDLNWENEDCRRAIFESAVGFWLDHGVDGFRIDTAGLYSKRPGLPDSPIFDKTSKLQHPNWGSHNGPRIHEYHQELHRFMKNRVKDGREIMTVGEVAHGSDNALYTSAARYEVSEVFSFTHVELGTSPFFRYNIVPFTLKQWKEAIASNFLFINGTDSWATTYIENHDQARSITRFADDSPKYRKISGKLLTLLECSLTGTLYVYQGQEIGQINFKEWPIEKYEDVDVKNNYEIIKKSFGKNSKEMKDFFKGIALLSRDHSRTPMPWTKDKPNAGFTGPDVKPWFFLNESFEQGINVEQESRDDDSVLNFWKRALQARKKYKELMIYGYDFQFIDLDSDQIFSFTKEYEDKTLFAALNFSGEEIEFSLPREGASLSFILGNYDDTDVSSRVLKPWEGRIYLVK
Assay: biochemical
Conditions: pNPG substrate, pH 6.8, 37 °C; read-out: IC50 α-Glucosidase
Numbers only, in µM.

Sample records with IC50:
Please report the recorded IC50 for CCCCCn1cc(CSc2nnc(COc3cccc4cccnc34)o2)nn1 [12a] .
35.2

Item under review: Brc1ccc(-n2cc(CSc3nnc(COc4cccc5cccnc45)o3)nn2)cc1 [12n] . Reported IC50?
35.2

Would you mind telling me what IC50 value was observed for Clc1ccc(Cn2cc(CSc3nnc(COc4cccc5cccnc45)o3)nn2)c(Cl)c1 [12i] ?
42.8

Can you look up the measured IC50 of BrCCCCCSc1nnc(COc2cccc3cccnc23)o1 for me?
15.8

I would be grateful if you could share the reported IC50 for c1ccc(CSc2nnc(COc3cccc4cccnc34)o2)cc1 .
26.7

I have 5 molecules here; please give me IC50 for each one.
1. Fc1ccc(CSc2nnc(COc3cccc4cccnc34)o2)cc1
2. CC(C)=CCSc1nnc(COc2cccc3cccnc23)o1
3. Fc1ccc(-n2cc(CSc3nnc(COc4cccc5cccnc45)o3)nn2)cc1 [12m]
4. Fc1cccc(CSc2nnc(COc3cccc4cccnc34)o2)c1
5. O=[N+]([O-])c1ccc(CSc2nnc(COc3cccc4cccnc34)o2)cc1

1: 23.7; 2: 34.1; 3: 26.8; 4: 48.8; 5: 32.8

Would you be so kind as to report IC50 for each listed record?
1. CCCCCSc1nnc(COc2cccc3cccnc23)o1
2. Fc1ccc(Cn2cc(CSc3nnc(COc4cccc5cccnc45)o3)nn2)cc1F [12j]
3. Cc1cccc(C)c1-n1cc(CSc2nnc(COc3cccc4cccnc34)o2)nn1 [12t]
4. CCCCCCn1cc(CSc2nnc(COc3cccc4cccnc34)o2)nn1 [12b]
5. Fc1ccc(CSc2nnc(COc3cccc4cccnc34)o2)cc1F
6. Brc1ccc(Cn2cc(CSc3nnc(COc4cccc5cccnc45)o3)nn2)cc1 [12f]
7. O=[N+]([O-])c1ccc(-n2cc(CSc3nnc(COc4cccc5cccnc45)o3)nn2)cc1 [12o]
8. O=[N+]([O-])c1ccc(Cn2cc(CSc3nnc(COc4cccc5cccnc45)o3)nn2)cc1 [12g]

1: 46.7; 2: 59; 3: 44.1; 4: 36.7; 5: 35.4; 6: 56.4; 7: 38.3; 8: 46.5

Return reported IC50 values for all items listed beneath this line.
1. CCCCSc1nnc(COc2cccc3cccnc23)o1
2. Clc1ccc(-n2cc(CSc3nnc(COc4cccc5cccnc45)o3)nn2)cc1 [12l]
3. c1ccc(Cn2cc(CSc3nnc(COc4cccc5cccnc45)o3)nn2)cc1 [12c]

1: 41.4; 2: 38; 3: 46.9

---

Experiment: DPPH radical scavenging activity
Conditions: DPPH radical scavenging, 30 min, 25 °C
Task for the reader: assign each of the following compounds its reported IC50.
Form field: result (number plus unit)

As a guide, the following entries are already answered.
Data request, read-out IC50, for Brc1ccc(CSc2nnc(COc3cccc4cccnc34)o2)cc1
85.2 µM

Given Clc1ccc(Cn2cc(CSc3nnc(COc4cccc5cccnc45)o3)nn2)cc1 [12d] , state its recorded IC50.
80.4 µM

# query: IC50 of entry CCCCCn1cc(CSc2nnc(COc3cccc4cccnc34)o2)nn1 [12a]
90 µM

# IC50 lookup, item CCCCCCSc1nnc(COc2cccc3cccnc23)o1
75.7 µM

Which IC50 value is on record for CC(C)=CCSc1nnc(COc2cccc3cccnc23)o1 ?
86.4 µM

Batch of 4 compounds: report IC50 for each.
1. Brc1ccc(Cn2cc(CSc3nnc(COc4cccc5cccnc45)o3)nn2)cc1 [12f]
2. BrCCSc1nnc(COc2cccc3cccnc23)o1
3. Clc1cccc(CSc2nnc(COc3cccc4cccnc34)o2)c1
4. COc1ccc(-n2cc(CSc3nnc(COc4cccc5cccnc45)o3)nn2)cc1 [12q]

1. 91.8 µM
2. 75.4 µM
3. 68 µM
4. 98.5 µM

---

Molecular target: porcine pancreatic amylase (Sus scrofa, UniProt P00690)
Construct: purchased Merck
Sequence (P00690 16-511): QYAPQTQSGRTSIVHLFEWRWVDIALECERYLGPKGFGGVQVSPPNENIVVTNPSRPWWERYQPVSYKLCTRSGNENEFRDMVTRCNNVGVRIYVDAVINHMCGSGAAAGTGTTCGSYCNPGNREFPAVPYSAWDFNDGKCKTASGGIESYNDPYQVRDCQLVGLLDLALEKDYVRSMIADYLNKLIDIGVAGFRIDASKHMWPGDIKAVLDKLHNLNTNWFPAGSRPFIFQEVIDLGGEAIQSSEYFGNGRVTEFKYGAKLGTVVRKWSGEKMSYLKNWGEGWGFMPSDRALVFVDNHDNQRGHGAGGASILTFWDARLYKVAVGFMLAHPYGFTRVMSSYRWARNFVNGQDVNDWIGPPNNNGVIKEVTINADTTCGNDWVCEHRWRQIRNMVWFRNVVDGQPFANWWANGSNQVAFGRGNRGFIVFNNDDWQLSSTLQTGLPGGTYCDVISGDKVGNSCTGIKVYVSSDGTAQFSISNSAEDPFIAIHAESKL
Assay: α-Amylase inhibitory activity (starch/DNS)
Format: biochemical
Protocol: α-Amylase inhibitory activity was determined according to Ibitoye et al. with slight modifications. […] The reaction in the mixture was terminated with a 1 mL dinitrosalicylate reagent before boiling for 10 min. The cooled mixture was diluted with 5 mL distilled water, and the absorbance was read at 540 nm. The inhibitory activity was calculated using the formula below: % Inhibition=1−Absorbance of compound/Absorbance of control×100
Measure: IC50

Recorded IC50 of Oc1cccc2cccnc12 [8-HQ, 8-hydroxyquinoline, reference compound] , please.
> 500 µM

---

Assay: Nitric oxide (NO) scavenging activity
Details: nitric oxide radical scavenging, 37 °C, 2 h
Measure: IC50

In the examples that follow, each entry is paired with its recorded IC50.
Fill in the blank: the reported IC50 of Clc1ccc(-n2cc(CSc3nnc(COc4cccc5cccnc45)o3)nn2)cc1 [12l] is ____.
> 500 µM

Returns the measured IC50 for the input compound. Input: CCCCSc1nnc(COc2cccc3cccnc23)o1
> 500 µM

Any idea what its IC50 is? The compound is CCCSc1nnc(COc2cccc3cccnc23)o1
> 500 µM

Name the recorded IC50 for BrCCCCCSc1nnc(COc2cccc3cccnc23)o1 .
198 µM

Reported IC50, compound Brc1ccc(CSc2nnc(COc3cccc4cccnc34)o2)cc1 : ____
> 500 µM

The record that follows has no IC50 shown yet.
Value lookup for IC50; key = CCCCCCn1cc(CSc2nnc(COc3cccc4cccnc34)o2)nn1 [12b]
> 500 µM

---

Experiment: Nitric oxide (NO) scavenging activity
Conditions: nitric oxide radical scavenging, 37 °C, 2 h
Experimental: The screening of the present compound series for NO radical scavenging activity (Table 2) identified excellent NO scavengers. The antioxidant capacity of the compounds to scavenge nitric oxide radicals was determined using a modified version of the protocol by Kurian et al.. […] Then, 250 μL of Griess reagent was added to the reaction mixture before the absorbance was measured at 546 nm. […]
pIC50: −log10 of the molar value.
Measure: pIC50

Use these answered entries as a reference point.
Consider the compound shown here: Clc1cccc(CSc2nnc(COc3cccc4cccnc34)o2)c1 What is its recorded pIC50?
< 3.30

Please look up its pIC50: Clc1ccc(CSc2nnc(COc3cccc4cccnc34)o2)cc1
< 3.30

Entry Fc1ccc(Cn2cc(CSc3nnc(COc4cccc5cccnc45)o3)nn2)cc1 [12e] has what pIC50?
< 3.30

# query: pIC50 of entry Fc1ccc(CSc2nnc(COc3cccc4cccnc34)o2)cc1F
< 3.30

New cases:
Entry Brc1ccc(Cn2cc(CSc3nnc(COc4cccc5cccnc45)o3)nn2)cc1 [12f] has what pIC50?
3.32

---

Give melting point for every item shown.

For the molecule shown here, Fc1ccc(Cn2cc(CSc3nnc(COc4cccc5cccnc45)o3)nn2)cc1 [12e] , give the reported melting point.
96 to 101 °C

Fill in the blank: the reported melting point of Cc1ccc(-n2cc(CSc3nnc(COc4cccc5cccnc45)o3)nn2)cc1 [12p] is ____.
78 to 80 °C

Field request: melting point | item: Clc1ccc(Cn2cc(CSc3nnc(COc4cccc5cccnc45)o3)nn2)c(Cl)c1 [12i]
124 to 130 °C

Record request: melting point value, item CCCCCn1cc(CSc2nnc(COc3cccc4cccnc34)o2)nn1 [12a]
90 to 94 °C

So what's the measured melting point for this one? Clc1cccc(Cn2cc(CSc3nnc(COc4cccc5cccnc45)o3)nn2)c1 [12h]
78 to 84 °C

Items follow; give melting point for each.
1. Clc1ccc(-n2cc(CSc3nnc(COc4cccc5cccnc45)o3)nn2)c(Cl)c1 [12r]
2. O=[N+]([O-])c1ccc(CSc2nnc(COc3cccc4cccnc34)o2)cc1
3. c1ccc(-n2cc(CSc3nnc(COc4cccc5cccnc45)o3)nn2)cc1 [12k]

112 to 116 °C
156.6 to 160.1 °C
122 to 128 °C
